Values from PubChem BioAssay AID588856

Experiment: qHTS for Inhibitors of TGF-b: Cytotox Counterscreen
Details: HepG2 CAGA-GFP viability, ATP luminescence, 18 h; series mostly up to 46.1 µM
Hit rate of the full screen: of about 410,000 compounds, about 3,100 (0.76%) were called active. The call rests on the fitted dose curve; in most records, active means well fitted cell-killing curve with a large enough effect; inactive means no such curve, though single readings can be large or run the other way. The full list was thinned out, with actives kept by preference.
Outcomes: true for active, false for inactive

• CN(Cc1ccccc1)c1ccc(/C=C/c2ccnc3ccccc23)cc1 = false
• CCOc1ccc2nc(N(CCCN(C)C)C(=O)c3ccc(C(=O)c4ccccc4)cc3)sc2c1 = true
• CCN(CC(=O)Nc1c(F)cccc1F)C(=O)c1ccc(S(=O)(=O)N2CCCCC2)cc1 = false
• CC(C)(CNC(=O)Cc1ccc(Cl)cc1Cl)N1CCOCC1 = false
• CN1CCN(c2oc(-c3ccc(COc4ccc(Cl)cc4)o3)nc2C#N)CC1 = false
• CCOc1ccc2nc(N3CCC(C(=O)Nc4cc(C)ccc4C)CC3)sc2c1 = false
• CC(C)(C)c1cc(C(=O)NN)n(Cc2ccc(Cl)cc2Cl)n1 = true
• COc1ccc(/C=C/c2ccnc3ccccc23)cc1OC = false
• Oc1ccc(Cl)cc1C1C=C(c2ccc3c(c2)OCO3)NC(c2ccc(F)c(Br)c2)N1 (stereo unspecified) = false
• Cc1ccc(S(=O)(=O)N(CCCN(C)C)Cc2ccc3c(c2)OCO3)cc1 = false
• CC1=C(C(=O)OCC2CCCCC2)C(c2c(F)cccc2Cl)CC(=O)N1 (stereo unspecified) = false
• CCc1ccc2nc(N(CCCN(C)C)C(=O)c3ccc4c(c3)OCCO4)sc2c1 = true
• Cc1cccc(-n2ncc(C(=O)N3CCN(c4ccc(Cl)cc4)CC3)c2C2CCN(C(=O)OC(C)(C)C)CC2)c1 = false
• CCc1nnc(NS(=O)(=O)c2ccc(N=Cc3c(C)[nH]n(-c4ccc(C)cc4)c3=O)cc2)s1 = true
• Cc1cccc(-n2ncc(C(=O)N3CCC(C)CC3)c2C2CCN(C(=O)OC(C)(C)C)CC2)c1 = false
• CN(C)CCCN(C(=O)c1ccc(S(=O)(=O)N2CCCCCC2)cc1)c1nc2ccc(Br)cc2s1 = true
• O=C(CCOc1ccccc1)N(Cc1cccnc1)c1nc2ccc(Cl)cc2s1 = false
• CN(C)c1ccc(/C=C/C=C/c2ccnc3ccccc23)cc1 = false
• CN1C(=O)c2[nH]nc(-c3ccc(F)cc3)c2C1c1ccccn1 (stereo unspecified) = false
• Cn1cc(C(=O)c2ccc(Cl)cc2Cl)cc1C(=O)NN = false
• Cc1ccc(C)c(Cn2c(CCCNC(=O)C3CCCCC3)nc3ccccc32)c1 = false
